- Test system: complementary DNA 3′-CGCAAAAAACGA-5′ (SEQ ID NO:12)
- Assay Overview: Melting temperature (Tm) of annealing products of antisense oligonucleotide analogues with complementary DNA sense strand
- Assay type: binding
- Condition Description: 100 mM NaCl, 10 mM sodium phosphate buffer (pH 7.2), 4 μM antisense strand, 4 μM sense strand; UV 260 nm
Observed Property: Tm for complementary DNA (°C)
Lab book: enter the figure in °C, no units written.

{"Substance": "5′-GCGXXXXXXGCT-3′ [Compound X6]", "Tested Target": "complementary DNA 3′-CGCAAAAAACGA-5′ (SEQ ID NO:12)", "Units Label": "°C", "Tm for complementary DNA": 58}
{"Substance": "5′-GCGTTTTXXGCT-3′ [Compound T4X2]", "Tested Target": "complementary DNA 3′-CGCAAAAAACGA-5′ (SEQ ID NO:12)", "Units Label": "°C", "Tm for complementary DNA": 54}
{"Substance": "5′-GCGTTXTTTGCT-3′ [Compound T2XT3]", "Tested Target": "complementary DNA 3′-CGCAAAAAACGA-5′ (SEQ ID NO:12)", "Units Label": "°C", "Tm for complementary DNA": 49}
{"Substance": "5′-GCGTTTXTTGCT-3′ [Compound T3XT2]", "Tested Target": "complementary DNA 3′-CGCAAAAAACGA-5′ (SEQ ID NO:12)", "Units Label": "°C", "Tm for complementary DNA": 49}
{"Substance": "5′-GCGTTXXTTGCT-3′ [Compound T2X2T2]", "Tested Target": "complementary DNA 3′-CGCAAAAAACGA-5′ (SEQ ID NO:12)", "Units Label": "°C", "Tm for complementary DNA": 49}
{"Substance": "5′-GCGTTTTTTTGCT-3′ [natural, reference compound]", "Tested Target": "complementary DNA 3′-CGCAAAAAACGA-5′ (SEQ ID NO:12)", "Units Label": "°C", "Tm for complementary DNA": 47}

Query string: Give the measured Tm for complementary DNA of 5′-GCGXXTTTTGCT-3′ [Compound X2T4] .
Result string: 51

Query string: # iterate: 5′-GCGTTTTTXGCT-3′ [Compound T5X]
Result string: 52

Query string: # iterate: 5′-GCGXTTTTTGCT-3′ [XT6]
Result string: 50

----------
- Tested on: complementary DNA 3′-CGCAAAAAACGA-5′ (SEQ ID NO:12)
- Assay Overview: Melting temperature (Tm) of annealing products of antisense oligonucleotide analogues with complementary DNA sense strand
- Format: binding
- Condition Description: change of Tm per modified residue versus natural strand
Measured ΔTm/mod. for complementary DNA, listed per entry.

Query string: Give the measured ΔTm/mod. for complementary DNA of 5′-GCGTTTTTXGCT-3′ [Compound T5X] .
Result string: +4 °C

Query string: # iterate: 5′-GCGTTTXTTGCT-3′ [Compound T3XT2]
Result string: +2 °C

Query string: # iterate: 5′-GCGXTTTTTGCT-3′ [XT6]
Result string: +3 °C

Query string: # iterate: 5′-GCGXXTTTTGCT-3′ [Compound X2T4]
Result string: +2 °C

Query string: # iterate: 5′-GCGTTXTTTGCT-3′ [Compound T2XT3]
Result string: +2 °C

----------
Measured ΔTm/mod. for complementary DNA, listed per entry.
- Tested on: complementary DNA 3′-CGCAAAAAACGA-5′ (SEQ ID NO:12)
- Assay Overview: Melting temperature (Tm) of annealing products of antisense oligonucleotide analogues with complementary DNA sense strand
- Assay type: binding
- Condition Description: change of Tm per modified residue versus natural strand

{"Substance": "5′-GCGXXXXXXGCT-3′ [Compound X6]", "Measured Value": "+1.8 °C"}
{"Substance": "5′-GCGTTTTXXGCT-3′ [Compound T4X2]", "Measured Value": "+3.5 °C"}

We now examine a further substance.
Query string: Give the measured ΔTm/mod. for complementary DNA of 5′-GCGTTXXTTGCT-3′ [Compound T2X2T2] .
Result string: +1 °C
